The measured values listed here are drawn from PubChem BioAssay (NCI).

- Tested on: A498 renal
- test: NCI tumour cell line growth inhibition, 48 h; in the data active = GI50 below about 0.43 µM; inactive = the rest
Possible outcomes: y for active, n for inactive

> print(dat)
                                   compound  answer.label
1  CCCS(=O)(=O)Nc1ccc(F)c(C(=O)c2c[nH]c3ncc(Cl)cc23)c1F             n
2  Fc1cnc(NC2CC2)nc1-c1cnc2ccc(N3CCOCC3)cn12             y
3  O=C1Nc2cc(Cl)ccc2/C1=C\c1c(-c2ccc(F)cc2)nc2ccccn12             n
4  CC(=O)O[C@H]1CCC2(C)C(=CCC3C2CCC2(C)/C(=N/OC(=O)c4ccc(N(CCCl)CCCl)cc4)CCC32)C1 (stereo partly specified)             n
5  COc1cc2ncn(-c3cc(O[C@H](C)c4ccccc4Cl)c(C(N)=O)s3)c2cc1OC             y
6  C[C@@H]1C[N+]2([O-])[C@H]3C4=CCC[C@@H]4CC[C@H]3[C@@]3(C)OC(=O)CC[C@]34CC[C@H]1[C@@H]42 (stereo partly specified)             n

* * *

Overview of reported TGI across a group of compounds:
- Tested on: OVCAR-8 ovarian
- test: NCI tumour cell line growth inhibition, 48 h
readout kind: TGI

> print(dat)
                                   compound  observed.result
1  Cc1ccc([N+](=O)[O-])cc1S(=O)(=O)Nc1ccc(C(=O)/C=C/c2cccs2)cc1         > 100 µM
2  N#CC(/C(CCCC(=O)Nc1cccc([N+](=O)[O-])c1)=N/NC(=O)c1cc2ccccc2cc1O)c1ccccc1 (stereo not given)         > 100 µM
3  CCOC(=O)C1(C)CCc2sc(N)c(C#N)c21 (stereo not given)         > 100 µM
4  O=C1OCC=C1COC1OC(CO)C(O)C(O)C1O (stereo not given)         > 100 µM
5  Fc1cnc(NC2CC2)nc1-c1cnc2ccc(N3CCOCC3)cn12        > 73.9 µM

* * *

- Tested on: UO-31 renal
- test: NCI tumour cell line growth inhibition, 48 h
readout kind: TGI (µM)

> print(dat)
                                   compound  assayed.system  readout.kind  output.unit  sign  observed.result
1  [C-]#[N+][C@@H]1C2[C@H](CC[C@@]1(C)O)C(=C)CC[C@@H]2[C@@]1(C)CC[C@H](Cl)C(C)(C)O1 (some centres undefined)     UO-31 renal           TGI           µM     =             7.17
2  CCOC(=O)[C@H]1O[C@@H]1C(=O)N[C@@H](CC(C)C)C(=O)NCCc1ccc(O)cc1     UO-31 renal           TGI           µM     >              100
3  O=C(Nc1cccc(-n2cc(-c3ccncc3)c(-c3ccc(Cl)c(O)c3)n2)c1)Nc1ccc(Cl)c(C(F)(F)F)c1     UO-31 renal           TGI           µM     =             2.59
4    CCN(CC)C(=O)C[n+]1c2ccccc2n2cc(N)ccc21     UO-31 renal           TGI           µM     >              100
